Test system: Mus musculus
Assay: Antiosteoporosis activity against ovariectomized ICR mouse assessed as serum calcium level at 110.3 nmol/kg, po after 30 mins
Format: functional
Peptide text beside a SMILES is read from it. * marks the point of attachment. Succinyl(O17-estradiol) = C[C@]12CC[C@@H]3c4ccc(O)cc4CC[C@H]3[C@@H]1CC[C@@H]2OC(=O)CCC(=O)*; Acetyl(estradiol-3-yloxy) = C[C@]12CC[C@@H]3c4ccc(OCC(=O)*)cc4CC[C@H]3[C@@H]1CC[C@@H]2O; X1 = C[C@]12CC[C@@H]3c4ccc(OCC(=O)*)cc4CC[C@H]3[C@@H]1CCC2=O
Below, each entry is listed alongside its reported Activity.
A number alone suffices; assume mM.

Use these answered entries as a reference point.
CC(C)[C@H](NC(=O)[C@H](CC(=O)O)NC(=O)CNC(=O)[C@H](CCCNC(=N)N)NC(=O)CCC(=O)O[C@H]1CC[C@H]2[C@@H]3CCc4cc(O)ccc4[C@H]3CC[C@]12C)C(=O)O ({Succinyl(O17-estradiol)}-RGDV-OH): 3.36
C[C@]12CC[C@@H]3c4ccc(O)cc4CC[C@H]3[C@@H]1CCC2=O [ESTRONE]: 3.35
C[C@]12CC[C@@H]3c4ccc(OCC(=O)N[C@@H](CCCNC(=N)N)C(=O)NCC(=O)N[C@@H](CC(=O)O)C(=O)N[C@@H](Cc5ccccc5)C(=O)N[C@@H](CCCNC(=N)N)C(=O)NCC(=O)N[C@@H](CC(=O)O)C(=O)N[C@@H](Cc5ccccc5)C(=O)O)cc4CC[C@H]3[C@@H]1CCC2=O (X1-RGDFRGDF-OH): 3.15
C[C@]12CC[C@@H]3c4ccc(OCC(=O)N[C@@H](CCCNC(=N)N)C(=O)NCC(=O)N[C@@H](CC(=O)O)C(=O)N[C@@H](CO)C(=O)O)cc4CC[C@H]3[C@@H]1CC[C@@H]2O ({Acetyl(estradiol-3-yloxy)}-RGDS-OH): 3.33
CC(C)[C@H](NC(=O)[C@H](CC(=O)O)NC(=O)CNC(=O)[C@H](CCCNC(=N)N)NC(=O)[C@@H](NC(=O)[C@H](CC(=O)O)NC(=O)CNC(=O)[C@H](CCCNC(=N)N)NC(=O)COc1ccc2c(c1)CC[C@@H]1[C@@H]2CC[C@]2(C)C(=O)CC[C@@H]12)C(C)C)C(=O)O (X1-RGDVRGDV-OH): 3
C[C@]12CC[C@@H]3c4ccc(OCC(=O)N[C@@H](CCCNC(=N)N)C(=O)NCC(=O)N[C@@H](CC(=O)O)C(=O)N[C@@H](CO)C(=O)N[C@@H](CCCNC(=N)N)C(=O)NCC(=O)N[C@@H](CC(=O)O)C(=O)N[C@@H](CO)C(=O)O)cc4CC[C@H]3[C@@H]1CCC2=O (X1-RGDSRGDS-OH): 3.08

May I ask what Activity has been recorded for C[C@]12CC[C@@H]3c4ccc(OCC(=O)N[C@@H](CCCNC(=N)N)C(=O)NCC(=O)N[C@@H](CC(=O)O)C(=O)N[C@@H](CO)C(=O)O)cc4CC[C@H]3[C@@H]1CCC2=O (X1-RGDS-OH) ?
3.33

* * *

Entries and their measured Activity follow.
Test system: Mus musculus
Assay: Toxicity in ovariectomized ICR mouse assessed as tail bleeding time at 110.3 nmol/kg, po for 90 mins
Type: organism-based
Run conditions: in vivo, 1.5 h
Peptide text beside a SMILES is read from it. * marks the point of attachment. Succinyl(O17-estradiol) = C[C@]12CC[C@@H]3c4ccc(O)cc4CC[C@H]3[C@@H]1CC[C@@H]2OC(=O)CCC(=O)*; X1 = C[C@]12CC[C@@H]3c4ccc(OCC(=O)*)cc4CC[C@H]3[C@@H]1CCC2=O
Respond with the figure and its unit, in that order.

Consider the following illustrative entries.
C[C@]12CC[C@@H]3c4ccc(O)cc4CC[C@H]3[C@@H]1CCC2=O: 433 s
CC(C)[C@H](NC(=O)[C@H](CC(=O)O)NC(=O)CNC(=O)[C@H](CCCNC(=N)N)NC(=O)[C@@H](NC(=O)[C@H](CC(=O)O)NC(=O)CNC(=O)[C@H](CCCNC(=N)N)NC(=O)COc1ccc2c(c1)CC[C@@H]1[C@@H]2CC[C@]2(C)C(=O)CC[C@@H]12)C(C)C)C(=O)O (X1-RGDVRGDV-OH): 514 s
CC(C)[C@H](NC(=O)[C@H](CC(=O)O)NC(=O)CNC(=O)[C@H](CCCNC(=N)N)NC(=O)CCC(=O)O[C@H]1CC[C@H]2[C@@H]3CCc4cc(O)ccc4[C@H]3CC[C@]12C)C(=O)O ({Succinyl(O17-estradiol)}-RGDV-OH): 560 s

What value of measured Activity is listed for C[C@]12CC[C@@H]3c4ccc(O)cc4CC[C@H]3[C@@H]1CC[C@@H]2OC(=O)CCC(=O)N[C@@H](CCCNC(=N)N)C(=O)NCC(=O)N[C@@H](CC(=O)O)C(=O)N[C@@H](Cc1ccccc1)C(=O)O ({Succinyl(O17-estradiol)}-RGDF-OH) ?
568 s

Sourced from ChEMBL document CHEMBL1151896
